Tested on: soybean
assay name: Test B pre/postemergence soybean
Format: in vivo, Glycine max
conditions: Rate 125 g/ha, Postemergence; scale of 0 to 10 where 0 is no effect and 10 is complete control
Protocol: […] At the same time, these crop and weed species were also treated with postemergence applications of test chemicals formulated in the same manner. […] Treated plants and controls were maintained in a greenhouse for twelve to sixteen days, after which all species were compared to controls and visually evaluated. […]
measured metric: Soybean plant response rating
Answer as a number with no unit attached.

Some solved entries appear below for comparison.
>  <compound>
CC(C)N(C(=O)n1oc(=O)n(C2CCCC2)c1=O)c1ccc(F)cc1F

>  <measured metric>
Soybean plant response rating

>  <reported value>
4

$$$$
>  <compound>
CC(C)C(C)n1c(=O)on(C(=O)N(c2ccc(F)cc2)C(C)C)c1=O (stereo not shown)

>  <measured metric>
Soybean plant response rating

>  <reported value>
3

$$$$
>  <compound>
CC(C)=CCn1c(=O)on(C(=O)N(c2ccc(F)cc2)C(C)C)c1=O

>  <measured metric>
Soybean plant response rating

>  <reported value>
2

$$$$

Could you now look at the following compound, please?
The recorded Soybean plant response rating for Cc1cccc(C)c1-n1c(=O)on(C(=O)N(c2ccc(Cl)cc2Cl)C2CCC2)c1=O is 0

Measured values drawn from patent US6737383B1 for this set.
